Source listed as patent US8367677B2.

Target: human L-Selectin-IgG-chimera (Homo sapiens)
Construct: fused on or other part: human IgG Fc part, a tag and dimerising handle that is captured by the goat anti-human Fc antibody on the plate
Sequence (P14151 39-318 limits assumed, change not shown): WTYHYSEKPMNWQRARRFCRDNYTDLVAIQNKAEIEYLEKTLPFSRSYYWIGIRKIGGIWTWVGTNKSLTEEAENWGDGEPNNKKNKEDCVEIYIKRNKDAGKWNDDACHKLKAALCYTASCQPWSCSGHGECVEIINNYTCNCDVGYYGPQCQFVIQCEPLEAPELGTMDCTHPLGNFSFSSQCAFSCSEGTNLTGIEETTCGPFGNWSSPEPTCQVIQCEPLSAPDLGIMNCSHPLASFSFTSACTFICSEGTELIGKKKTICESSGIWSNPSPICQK
Experiment: Sialyl Lewis x Tyrosine Sulfate Assay (sLex TSA), L-selectin
Assay type: binding
Conditions: compound at 100 μM, read-out: L-Selectin [% Inhib.]
inhibition at 100 µM of 90% or higher: Condition met. Under 90%: Condition not met.

INSERT INTO results (compound, class_assignment) VALUES
  ('O=C(CCc1cc(O)c(O)c(O)c1)NCc1ccc(C(=O)O)cc1', 'Condition not met'),
  ('COC(=O)c1ccccc1NC(=O)Cc1ccc(O)c(O)c1O', 'Condition not met'),
  ('Cc1ccc(C(=O)O)cc1NC(=O)CCc1ccc(O)c(O)c1O', 'Condition not met'),
  ('O=C(Cc1cc(O)c(O)c(O)c1)NCC1CCC(C(=O)O)CC1 (centres unmarked)', 'Condition not met'),
  ('O=C(O)Cc1cccc(NC(=O)CCc2cc(O)c(O)c(O)c2)c1', 'Condition not met');

Prompt: Could you tell me if the measured inhibition at 100 µM of `Cc1ccc(C(=O)O)cc1NC(=O)CCc1cc(O)c(O)c(O)c1` reaches 90% or more?
Completion: Condition not met

Prompt: Quick check: does `O=C(O)Cc1ccc(-c2ccccc2NC(=O)Cc2ccc(O)c(O)c2O)s1` have inhibition at 100 µM greater than or equal to 90%?
Completion: Condition not met

Prompt: Hello, I need to know if `O=C(O)Cc1cccc(NC(=O)Cc2ccc(O)c(O)c2O)c1` has measured inhibition at 100 µM not below 90%. Thanks!
Completion: Condition not met

Prompt: Identify whether the reported inhibition at 100 µM of the following compound is 90% or greater: `O=C(Cc1cc(O)c(O)c(O)c1)Nc1cccc(C(=O)O)c1`
Completion: Condition not met

Prompt: Please check the record `O=C(/C=C/c1ccc(O)c(O)c1O)Nc1ccc(C(=O)O)cc1` and state if its inhibition at 100 µM is at or above 90%.
Completion: Condition met

Prompt: Threshold query (inhibition at 100 µM >= 90%) on `O=C(/C=C/c1ccc(O)c(O)c1O)Nc1cccc(C(=O)O)c1`
Completion: Condition met

Prompt: Answer whether inhibition at 100 µM of `O=C(Cc1ccc(O)c(O)c1O)Nc1cccc(C(=O)O)c1` is greater than or equal to 90%.
Completion: Condition met

Prompt: Hello, I need to know if `O=C(Cc1cc(O)c(O)c(O)c1)NCc1ccc(C(=O)O)cc1` has measured inhibition at 100 µM not below 90%. Thanks!
Completion: Condition not met

Prompt: hey, is inhibition at 100 µM for this one >= 90%? `O=C(O)Cc1ccc(-c2ccccc2NC(=O)CCc2cc(O)c(O)c(O)c2)s1`
Completion: Condition met

Prompt: Exam item: decide whether the reported inhibition at 100 µM for `O=C(O)Cc1ccc(-c2ccccc2NC(=O)c2cccc(-c3ccc(O)c(O)c3O)c2)s1` is at least 90%.
Completion: Condition met

Prompt: API: above_or_equal(metric=inhibition at 100 µM, cutoff=90%) for item `O=C(O)Cc1cccc(-c2ccccc2NC(=O)Cc2cc(O)c(O)c(O)c2)c1`
Completion: Condition not met

Prompt: Is reported inhibition at 100 µM greater than or equal to 90% here: `O=C(O)Cc1cccc(NC(=O)Cc2cc(O)c(O)c(O)c2)c1`
Completion: Condition not met

Prompt: Identify whether the reported inhibition at 100 µM of the following compound is 90% or greater: O=C(CCc1cc(O)c(O)c(O)c1)NCC1CCC(C(=O)O)CC1 (centres unmarked)
Completion: Condition not met
